- Tested on: 292921-168-R tumor spheroid viability;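 also: spheroids exposed to compounds for 7 days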
- assay-info: Anticancer human tumor 292921-168-R patient-derived pancreatic carcinoma cell line growth inhibition
- assay-setup: curve of first compound; second compound 31.6 µM; spheroids with HUVEC and MSC
Listed here: items and their measured IC50.

Cc1cc(C)c(CNC(=O)c2cc(-c3ccc(CN4CCOCC4)cc3)cc3c2cnn3C2CCCC2)c(=O)[nH]1 + Cn1nnc2c(C(N)=O)ncn2c1=O :: > 10000 nM

Q: Notebook: pull reported IC50 for 292921-168-R tumor spheroid viability, entry COc1cc(C)[nH]c(=O)c1CN1CCc2c(Cl)cc(C(OC)C3COC3)c(Cl)c2C1=O (configuration not stated) + Cn1nnc2c(C(N)=O)ncn2c1=O
Ans: > 10000 nM

Q: Find IC50 (292921-168-R tumor spheroid viability) for the entry CC1COCCN1c1cc(-c2ccnn2C)c2ccnc(-c3ccn[nH]3)c2n1 (configuration not stated) + Cn1nnc2c(C(N)=O)ncn2c1=O
Ans: < 31.6 nM
